- Run description: Pharmacokinetics test in mice
- Format: in vivo
- Assay conditions: absolute bioavailability, oral 5 mg/kg vs intravenous 1 mg/kg, male SD mice
Rule: criterion met for F not less than 60%, criterion not met for anything less.

{"Smiles entry": "CCc1nc2sc(C3CCN(CC(=O)N4CCOCC4)CC3)cn2c1N(CC)c1nc(-c2ccc(F)cc2)c(C#N)s1", "Class assignment": "criterion not met"}
{"Smiles entry": "CCc1nc2sc(C3CCN(CC(=O)N4CC(O)C4)CC3)cn2c1N(CC1CC1)c1nc(-c2ccc(F)cc2)c(C#N)s1", "Class assignment": "criterion not met"}
{"Smiles entry": "CCc1nc2sc(C3CCN(CC(=O)NCC(F)F)CC3)cn2c1N(CC)c1nc(-c2ccc(F)cc2)c(C#N)s1", "Class assignment": "criterion not met"}
{"Smiles entry": "[2H]C([2H])([2H])C([2H])([2H])N(c1nc(-c2ccc(F)cc2)c(C#N)s1)c1c(CC)nc2sc(C3CCN(CC(=O)N4CC(O)C4)CC3)cn12", "Class assignment": "criterion met"}
{"Smiles entry": "CCc1nc2sc(C3CCN(CC(=O)N4CC(O)C4)CC3)cn2c1N(CC)c1nc(-c2ccc(F)cc2)c(C#N)s1", "Class assignment": "criterion met"}
{"Smiles entry": "CCc1nc2sc(C3CCN(CC(=O)NC4COC4)CC3)cn2c1N(CC)c1nc(-c2ccc(F)cc2)c(C#N)s1", "Class assignment": "criterion met"}
{"Smiles entry": "CCc1nc2sc(C3CCN(CC(=O)N4CC(O)C4)CC3)cn2c1N(c1nc(-c2ccc(F)cc2)c(C#N)s1)C(C)C", "Class assignment": "criterion not met"}
{"Smiles entry": "CCc1nc2sc(C3CCN(CC(=O)NC4CCOCC4)CC3)cn2c1N(CC)c1nc(-c2ccc(F)cc2)c(C#N)s1", "Class assignment": "criterion met"}
{"Smiles entry": "CCc1nc2sc(C3CCN(CC(=O)N4CC(O)C4)CC3)cn2c1N(c1nc(-c2ccc(F)cc2)c(C#N)s1)C1CC1", "Class assignment": "criterion not met"}

###

- Run description: Pharmacokinetics test in mice
- Format: in vivo
- Assay conditions: mouse; Intravenous injection (1 mg/kg), male SD mice, plasma
Exam item: assign Yes to entries whose AUC is below 1000 ng·h/mL and No to entries at or above 1000 ng·h/mL. Note that a value of exactly 1000 ng·h/mL receives No.

{"Smiles entry": "CCc1nc2sc(C3CCN(CC(=O)N4CC(O)C4)CC3)cn2c1N(CC)c1nc(-c2ccc(F)cc2)c(C#N)s1", "Class assignment": "No"}
{"Smiles entry": "CCc1nc2sc(C3CCN(CC(=O)NCC(F)F)CC3)cn2c1N(CC)c1nc(-c2ccc(F)cc2)c(C#N)s1", "Class assignment": "Yes"}
{"Smiles entry": "CCc1nc2sc(C3CCN(CC(=O)NC4CCOCC4)CC3)cn2c1N(CC)c1nc(-c2ccc(F)cc2)c(C#N)s1", "Class assignment": "No"}
{"Smiles entry": "CCc1nc2sc(C3CCN(CC(=O)NC4COC4)CC3)cn2c1N(CC)c1nc(-c2ccc(F)cc2)c(C#N)s1", "Class assignment": "No"}
{"Smiles entry": "CCc1nc2sc(C3CCN(CC(=O)N4CC(O)C4)CC3)cn2c1N(c1nc(-c2ccc(F)cc2)c(C#N)s1)C(C)C", "Class assignment": "Yes"}
{"Smiles entry": "[2H]C([2H])([2H])C([2H])([2H])N(c1nc(-c2ccc(F)cc2)c(C#N)s1)c1c(CC)nc2sc(C3CCN(CC(=O)N4CC(O)C4)CC3)cn12", "Class assignment": "No"}

###

- Run description: Pharmacokinetics test in mice
- Type: in vivo
- Assay conditions: mouse; Oral administration (5 mg/kg), male SD mice, plasma
- Text: Pharmacokinetics Test in Mice Male SD mice were selected for pharmacokinetics test study, plasma concentration at different time points were quantitatively determined by LC/MS/MS method after the mice were intravenously injected and orally administrated with the compounds to be tested, thereby evaluating pharmacokinetics characteristic of the compounds to be tested in SD mice. […]

{"Molecule": "CCc1nc2sc(C3CCN(CC(=O)NC4COC4)CC3)cn2c1N(CC)c1nc(-c2ccc(F)cc2)c(C#N)s1 [Embodiment 21]", "Units of measure": "h", "half-life": 2.61}
{"Molecule": "CCc1nc2sc(C3CCN(CC(=O)N4CCOCC4)CC3)cn2c1N(CC)c1nc(-c2ccc(F)cc2)c(C#N)s1 [Embodiment 22]", "Units of measure": "h", "half-life": 4.19}
{"Molecule": "CCc1nc2sc(C3CCN(CC(=O)NC4CCOCC4)CC3)cn2c1N(CC)c1nc(-c2ccc(F)cc2)c(C#N)s1 [Embodiment 23]", "Units of measure": "h", "half-life": 3.93}

###

- Run description: Pharmacokinetics test in mice
- Type: in vivo
- Assay conditions: mouse; Oral administration (5 mg/kg), male SD mice, plasma
Recorded metric: half-life

{"Smiles entry": "CCc1nc2sc(C3CCN(CC(=O)N4CC(O)C4)CC3)cn2c1N(CC)c1nc(-c2ccc(F)cc2)c(C#N)s1", "Result": "3.21 h"}
{"Smiles entry": "CCc1nc2sc(C3CCN(CC(=O)N4CC(O)C4)CC3)cn2c1N(c1nc(-c2ccc(F)cc2)c(C#N)s1)C(C)C", "Result": "3.83 h"}
{"Smiles entry": "CCc1nc2sc(C3CCN(CC(=O)N4CC(O)C4)CC3)cn2c1N(c1nc(-c2ccc(F)cc2)c(C#N)s1)C1CC1", "Result": "2.23 h"}
{"Smiles entry": "[2H]C([2H])([2H])C([2H])([2H])N(c1nc(-c2ccc(F)cc2)c(C#N)s1)c1c(CC)nc2sc(C3CCN(CC(=O)N4CC(O)C4)CC3)cn12", "Result": "2.81 h"}
{"Smiles entry": "CCc1nc2sc(C3CCN(CC(=O)N4CC(O)C4)CC3)cn2c1N(CC1CC1)c1nc(-c2ccc(F)cc2)c(C#N)s1", "Result": "3.63 h"}
{"Smiles entry": "CCc1nc2sc(C3CCN(CC(=O)NCC(F)F)CC3)cn2c1N(CC)c1nc(-c2ccc(F)cc2)c(C#N)s1", "Result": "4.4 h"}

###

- Run description: Pharmacokinetics test in mice
- Type: in vivo
- Assay conditions: mouse; Oral administration (5 mg/kg), male SD mice, plasma
The label is Satisfied for AUC below 3000 ng·h/mL and Not satisfied for AUC equal to or exceeding 3000 ng·h/mL.

{"Smiles entry": "CCc1nc2sc(C3CCN(CC(=O)N4CC(O)C4)CC3)cn2c1N(CC)c1nc(-c2ccc(F)cc2)c(C#N)s1", "Class assignment": "Not satisfied"}
{"Smiles entry": "[2H]C([2H])([2H])C([2H])([2H])N(c1nc(-c2ccc(F)cc2)c(C#N)s1)c1c(CC)nc2sc(C3CCN(CC(=O)N4CC(O)C4)CC3)cn12", "Class assignment": "Not satisfied"}
{"Smiles entry": "CCc1nc2sc(C3CCN(CC(=O)NC4COC4)CC3)cn2c1N(CC)c1nc(-c2ccc(F)cc2)c(C#N)s1", "Class assignment": "Not satisfied"}
{"Smiles entry": "CCc1nc2sc(C3CCN(CC(=O)NCC(F)F)CC3)cn2c1N(CC)c1nc(-c2ccc(F)cc2)c(C#N)s1", "Class assignment": "Satisfied"}
{"Smiles entry": "CCc1nc2sc(C3CCN(CC(=O)N4CC(O)C4)CC3)cn2c1N(c1nc(-c2ccc(F)cc2)c(C#N)s1)C1CC1", "Class assignment": "Satisfied"}
{"Smiles entry": "CCc1nc2sc(C3CCN(CC(=O)N4CC(O)C4)CC3)cn2c1N(CC1CC1)c1nc(-c2ccc(F)cc2)c(C#N)s1", "Class assignment": "Satisfied"}
{"Smiles entry": "CCc1nc2sc(C3CCN(CC(=O)N4CC(O)C4)CC3)cn2c1N(c1nc(-c2ccc(F)cc2)c(C#N)s1)C(C)C", "Class assignment": "Satisfied"}
{"Smiles entry": "CCc1nc2sc(C3CCN(CC(=O)NC4CCOCC4)CC3)cn2c1N(CC)c1nc(-c2ccc(F)cc2)c(C#N)s1", "Class assignment": "Not satisfied"}
{"Smiles entry": "CCc1nc2sc(C3CCN(CC(=O)N4CCOCC4)CC3)cn2c1N(CC)c1nc(-c2ccc(F)cc2)c(C#N)s1", "Class assignment": "Satisfied"}
